Data origin: BindingDB's records for doi:10.1021/jm000541z

- target_desc: Alpha-1B adrenergic receptor (Mesocricetus auratus) (UniProt P18841)
- Sequence (P18841 whole entry, looked up): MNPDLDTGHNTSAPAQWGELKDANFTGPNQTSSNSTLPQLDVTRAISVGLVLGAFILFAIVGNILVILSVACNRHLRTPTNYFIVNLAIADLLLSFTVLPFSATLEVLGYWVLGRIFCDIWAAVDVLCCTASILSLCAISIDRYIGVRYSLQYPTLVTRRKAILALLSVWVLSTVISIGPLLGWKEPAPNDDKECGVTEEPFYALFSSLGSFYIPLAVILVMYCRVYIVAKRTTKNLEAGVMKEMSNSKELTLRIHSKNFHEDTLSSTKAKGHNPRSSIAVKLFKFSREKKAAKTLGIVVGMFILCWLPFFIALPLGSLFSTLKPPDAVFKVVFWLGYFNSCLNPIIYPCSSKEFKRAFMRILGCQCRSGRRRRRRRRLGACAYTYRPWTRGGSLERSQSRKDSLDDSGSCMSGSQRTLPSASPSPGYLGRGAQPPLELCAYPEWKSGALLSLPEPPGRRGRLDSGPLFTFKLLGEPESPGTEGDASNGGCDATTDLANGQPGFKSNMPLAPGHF
pKi: −log10 of the molar value.
# cutoff 8 applies to pKi; >= gives 1 (yes), < gives 0 (no)

Reported pKi at or above 8? COc1cccc2c1CC[C@H]1CN(CCn3c(=O)[nH]c4cccc(Cl)c4c3=O)C[C@@H]21
1 (yes)

Does pKi meet or surpass 8 for COc1cc2c(=O)n(CCN3C[C@@H]4CCc5c(OC)cccc5[C@@H]4C3)c(=O)n(C)c2cc1OC ?
1 (yes)

Is the recorded value of pKi equal to or greater than 8 for this molecule? COc1cccc2c1CC[C@H]1CN(CCn3c(=O)[nH]c4[nH]ccc4c3=O)C[C@@H]21
1 (yes)

Can COc1cccc2c1CC[C@H]1CN(CCn3c(=O)[nH]c4cc([N+](=O)[O-])ccc4c3=O)C[C@@H]21 be said to have pKi at or above 8?
1 (yes)

Form field: pKi at least 8? Entry: COc1cccc2c1CC[C@H]1CN(CCn3c(=O)[nH]c4cccc(C)c4c3=O)C[C@@H]21
1 (yes)

Dear colleague, could you confirm whether COc1cccc2c1CC[C@H]1CN(CCn3c(=O)[nH]c4c(sc5ncc(Cl)nc54)c3=O)C[C@@H]21 has pKi at or above 8?
0 (no)

I'd appreciate it if you could say whether COc1cccc2c1CC[C@H]1CN(CCn3c(=O)[nH]c4c(C(C)C)c(OC)sc4c3=O)C[C@@H]21 has pKi at least equal to 8.
1 (yes)

Check this molecule for pKi at or above 8: COc1cc2c(cc1OC)CN(CCN1C[C@@H]3CCc4c(OC)cccc4[C@@H]3C1)CC2
0 (no)

Does pKi meet or surpass 8 for COc1cccc2c1CC[C@H]1CN(CCn3c(=O)[nH]c4cnccc4c3=O)C[C@@H]21 ?
1 (yes)

// inclusive: pKi at least 8? input: COc1cccc2c1CC[C@H]1CN(CCn3c(=O)[nH]c4cscc4c3=O)C[C@@H]21
1 (yes)

Please tell me: is the molecule COc1cccc2c1CC[C@H]1CN(CCn3c(=O)[nH]c4sccc4c3=O)C[C@@H]21 at or over 8 in terms of pKi?
1 (yes)

Does the molecule COc1cccc2c1CC[C@H]1CN(CCn3c(=O)[nH]c4ccsc4c3=O)C[C@@H]21 have recorded pKi that is 8 or more?
1 (yes)

Could you verify whether the entry COc1cc(N)c(C(=O)NCCN2C[C@@H]3CCc4c(OC)cccc4[C@@H]3C2)cc1OC shows pKi of no less than 8?
0 (no)

Given the entry COc1cccc2c1CC[C@H]1CN(CCn3c(=O)[nH]c4c(C)c(C)ccc4c3=O)C[C@@H]21 , answer whether its pKi meets or surpasses 8.
1 (yes)

Determine whether this molecule has pKi no lower than 8: COc1cccc2c1CC[C@H]1CN(CCn3c(=O)[nH]c4ccccc4c3=O)C[C@@H]21
1 (yes)
